Test: Gas (ozone) resistance of the printed images
Assay type: physicochemical
Conditions: grade of color difference ΔE; 40 ppm ozone, 60% RH, 24° C., 6 h
Text: Prepare the ink composition according to the formula described in Table 1 containing the products obtained in the above embodiment as the magenta colorant, and filter the ink composition with a […] membrane filter to obtain the aqueous magenta ink composition of the present invention. Add triethanolamine to adjust the ink composition pH to 8˜10 and add deionized water to make the total volume to reach 100 parts by weight. […]
ENDPOINT: Ozone resistance of printed images

O=C([O-])CCCS(=O)(=O)c1ccc(S(=O)(=O)[O-])c(Nc2cc(S(=O)(=O)[O-])c3[nH]c(=O)c(C(=O)OCc4cccc([N+](=O)[O-])c4)c4c3c2C(=O)c2ccccc2-4)c1.[Na+].[Na+].[Na+] [Dm7]    ∘ (ΔE < 10)
O=C([O-])CCCS(=O)(=O)c1cc(S(=O)(=O)[O-])c(Nc2cc(S(=O)(=O)[O-])c3[nH]c(=O)c(C(=O)OCc4cccc(S(=O)(=O)[O-])c4)c4c3c2C(=O)c2ccccc2-4)c(S(=O)(=O)[O-])c1.[Na+].[Na+].[Na+].[Na+].[Na+] [Dp14]    ∘ (ΔE < 10)

----------
Test: Light resistance test of printed images with xenon lamp
Format: physicochemical
Conditions: grade of color difference ΔE; ink with 6 parts dye on glossy photo paper; xenon lamp 0.36 W/m^2, 60% RH, 24° C., 50 h
Source text: Prepare the ink composition according to the formula described in Table 1 containing the products obtained in the above embodiment as the magenta colorant, and filter the ink composition with a […] membrane filter to obtain the aqueous magenta ink composition of the present invention. Add triethanolamine to adjust the ink composition pH to 8˜10 and add deionized water to make the total volume to reach 100 parts by weight. […]
ENDPOINT: UV resistance of printed images

Observe how each entry below is paired with its result.
Cc1ccc(COC(=O)c2c3c4c(c(Nc5cc(S(=O)(=O)CCCC(=O)[O-])ccc5S(=O)(=O)[O-])cc(S(=O)(=O)[O-])c4[nH]c2=O)C(=O)c2ccccc2-3)cc1.[Na+].[Na+].[Na+]    ∘ (ΔE < 10)
Cn1c(=O)c(C(=O)OCc2cccc3ccccc23)c2c3c(c(Nc4ccc(S(=O)(=O)[O-])cc4S(=O)(=O)[O-])ccc31)C(=O)c1ccccc1-2.[Na+].[Na+] [Dye2, reference compound]    ∘ (ΔE < 10)
O=C([O-])CCCS(=O)(=O)c1ccc(S(=O)(=O)[O-])c(Nc2cc(S(=O)(=O)[O-])c3[nH]c(=O)c(C(=O)OCc4ccccc4)c4c3c2C(=O)c2ccccc2-4)c1.[Na+].[Na+].[Na+]    ∘ (ΔE < 10)
O=C([O-])CCCS(=O)(=O)c1cc(S(=O)(=O)[O-])c(Nc2cc(S(=O)(=O)[O-])c3[nH]c(=O)c(C(=O)OCc4cccc(Cl)c4)c4c3c2C(=O)c2ccccc2-4)c(S(=O)(=O)[O-])c1.[Na+].[Na+].[Na+].[Na+]    ∘ (ΔE < 10)
O=C(Nc1cc(S(=O)(=O)[O-])cc2cc(S(=O)(=O)[O-])c(N=Nc3ccc4cc(S(=O)(=O)CCOS(=O)(=O)[O-])ccc4c3S(=O)(=O)[O-])c(O)c12)c1ccccc1.[Na+].[Na+].[Na+].[Na+] [C.I. reactive red 180, reference compound]    x (ΔE > 20)

Quick batch: UV resistance of printed images for everything below.
1. O=S(=O)([O-])c1cc(Nc2nc(Nc3ccc(/C=C/c4ccc(Nc5nc(Nc6cc(S(=O)(=O)[O-])cc7cc(S(=O)(=O)[O-])c(N=Nc8ccccc8)c(O)c67)nc(N6CCOCC6)n5)cc4S(=O)(=O)[O-])c(S(=O)(=O)[O-])c3)nc(N3CCOCC3)n2)c2c(O)c(N=Nc3ccccc3)c(S(=O)(=O)[O-])cc2c1.[Na+].[Na+].[Na+].[Na+].[Na+].[Na+] [C.I. direct red 227, reference compound]
2. O=C([O-])CCCS(=O)(=O)c1ccc(S(=O)(=O)[O-])c(Nc2cc(S(=O)(=O)[O-])c3[nH]c(=O)c(C(=O)OCc4cccc([N+](=O)[O-])c4)c4c3c2C(=O)c2ccccc2-4)c1.[Na+].[Na+].[Na+]
3. O=C([O-])CCCS(=O)(=O)c1cc(S(=O)(=O)[O-])c(Nc2cc(S(=O)(=O)[O-])c3[nH]c(=O)c(C(=O)OCc4ccccc4)c4c3c2C(=O)c2ccccc2-4)c(S(=O)(=O)[O-])c1.[Na+].[Na+].[Na+].[Na+]

**Result**
1: x (ΔE > 20); 2: ∘ (ΔE < 10); 3: ∘ (ΔE < 10)

----------
Assay: Gas (ozone) resistance of the printed images
Assay type: physicochemical
Conditions: grade of color difference ΔE; 40 ppm ozone, 60% RH, 24° C., 6 h
ENDPOINT: Ozone resistance of printed images

Observe how each entry below is paired with its result.
O=C(Nc1cc(S(=O)(=O)[O-])cc2cc(S(=O)(=O)[O-])c(N=Nc3ccc4cc(S(=O)(=O)CCOS(=O)(=O)[O-])ccc4c3S(=O)(=O)[O-])c(O)c12)c1ccccc1.[Na+].[Na+].[Na+].[Na+] [C.I. reactive red 180, reference compound]    x (ΔE > 20)
Cc1ccc(COC(=O)c2c3c4c(c(Nc5cc(S(=O)(=O)CCCC(=O)[O-])ccc5S(=O)(=O)[O-])cc(S(=O)(=O)[O-])c4[nH]c2=O)C(=O)c2ccccc2-3)cc1.[Na+].[Na+].[Na+]    ∘ (ΔE < 10)
O=S(=O)([O-])c1cc(Nc2nc(Nc3ccc(/C=C/c4ccc(Nc5nc(Nc6cc(S(=O)(=O)[O-])cc7cc(S(=O)(=O)[O-])c(N=Nc8ccccc8)c(O)c67)nc(N6CCOCC6)n5)cc4S(=O)(=O)[O-])c(S(=O)(=O)[O-])c3)nc(N3CCOCC3)n2)c2c(O)c(N=Nc3ccccc3)c(S(=O)(=O)[O-])cc2c1.[Na+].[Na+].[Na+].[Na+].[Na+].[Na+] [C.I. direct red 227, reference compound]    x (ΔE > 20)
O=C([O-])CCCS(=O)(=O)c1ccc(S(=O)(=O)[O-])c(Nc2cc(S(=O)(=O)[O-])c3[nH]c(=O)c(C(=O)[O-])c4c3c2C(=O)c2ccccc2-4)c1.[Na+].[Na+].[Na+].[Na+]    ∘ (ΔE < 10)
O=C([O-])CCCS(=O)(=O)c1cc(S(=O)(=O)[O-])c(Nc2cc(S(=O)(=O)[O-])c3[nH]c(=O)c(C(=O)OCc4cccc5ccccc45)c4c3c2C(=O)c2ccccc2-4)c(S(=O)(=O)[O-])c1.[Na+].[Na+].[Na+].[Na+]    ∘ (ΔE < 10)

**Query** Supply recorded Ozone resistance of printed images for O=C([O-])CCCS(=O)(=O)c1cc(S(=O)(=O)[O-])c(Nc2cc(S(=O)(=O)[O-])c3[nH]c(=O)c(C(=O)[O-])c4c3c2C(=O)c2ccccc2-4)c(S(=O)(=O)[O-])c1.[Na+].[Na+].[Na+].[Na+].[Na+] here.
**Result** ∘ (ΔE < 10)

----------
Experiment: Evaluation of long-term stability of the dye in aqueous solvent systems
Type: physicochemical
Design: key: ∘: No precipitation; Δ: Slight precipitation; x: Notable
Settings: 20 parts dye, 70 parts water, 10 parts ethylene glycol; 50° C. 7 d, then 0° C. 7 d; precipitation on filtering
Experimental: Heat and dissolve the system consisting of 20 parts of dyes, 70 parts of water and 10 parts of ethylene glycol; after the solution cools down, store it airtight at a constant temperature of 50° C. for 7 d; cool it to 0° C. and store it at the same temperature for 7 d; filter the solution and evaluate it in 3 grades based on the following benchmark: […]
ENDPOINT: Long-term stability of the dye in aqueous solvent systems

O=C([O-])CCCS(=O)(=O)c1cc(S(=O)(=O)[O-])c(Nc2cc(S(=O)(=O)[O-])c3[nH]c(=O)c(C(=O)OCc4cccc(Cl)c4)c4c3c2C(=O)c2ccccc2-4)c(S(=O)(=O)[O-])c1.[Na+].[Na+].[Na+].[Na+]    ∘
O=C(Nc1cc(S(=O)(=O)[O-])cc2cc(S(=O)(=O)[O-])c(N=Nc3ccc4cc(S(=O)(=O)CCOS(=O)(=O)[O-])ccc4c3S(=O)(=O)[O-])c(O)c12)c1ccccc1.[Na+].[Na+].[Na+].[Na+] [C.I. reactive red 180, reference compound]    Δ
O=S(=O)([O-])c1cc(Nc2nc(Nc3ccc(/C=C/c4ccc(Nc5nc(Nc6cc(S(=O)(=O)[O-])cc7cc(S(=O)(=O)[O-])c(N=Nc8ccccc8)c(O)c67)nc(N6CCOCC6)n5)cc4S(=O)(=O)[O-])c(S(=O)(=O)[O-])c3)nc(N3CCOCC3)n2)c2c(O)c(N=Nc3ccccc3)c(S(=O)(=O)[O-])cc2c1.[Na+].[Na+].[Na+].[Na+].[Na+].[Na+] [C.I. direct red 227, reference compound]    Δ

These measurements were taken from patent US9011589B2.
